Where these numbers come from: patent US20250304667A1

# assay_target: human complement Component 5 (C5) (human, UniProt P01031 19-1676, limits assumed)
# Sequence (P01031 19-1676 limits assumed): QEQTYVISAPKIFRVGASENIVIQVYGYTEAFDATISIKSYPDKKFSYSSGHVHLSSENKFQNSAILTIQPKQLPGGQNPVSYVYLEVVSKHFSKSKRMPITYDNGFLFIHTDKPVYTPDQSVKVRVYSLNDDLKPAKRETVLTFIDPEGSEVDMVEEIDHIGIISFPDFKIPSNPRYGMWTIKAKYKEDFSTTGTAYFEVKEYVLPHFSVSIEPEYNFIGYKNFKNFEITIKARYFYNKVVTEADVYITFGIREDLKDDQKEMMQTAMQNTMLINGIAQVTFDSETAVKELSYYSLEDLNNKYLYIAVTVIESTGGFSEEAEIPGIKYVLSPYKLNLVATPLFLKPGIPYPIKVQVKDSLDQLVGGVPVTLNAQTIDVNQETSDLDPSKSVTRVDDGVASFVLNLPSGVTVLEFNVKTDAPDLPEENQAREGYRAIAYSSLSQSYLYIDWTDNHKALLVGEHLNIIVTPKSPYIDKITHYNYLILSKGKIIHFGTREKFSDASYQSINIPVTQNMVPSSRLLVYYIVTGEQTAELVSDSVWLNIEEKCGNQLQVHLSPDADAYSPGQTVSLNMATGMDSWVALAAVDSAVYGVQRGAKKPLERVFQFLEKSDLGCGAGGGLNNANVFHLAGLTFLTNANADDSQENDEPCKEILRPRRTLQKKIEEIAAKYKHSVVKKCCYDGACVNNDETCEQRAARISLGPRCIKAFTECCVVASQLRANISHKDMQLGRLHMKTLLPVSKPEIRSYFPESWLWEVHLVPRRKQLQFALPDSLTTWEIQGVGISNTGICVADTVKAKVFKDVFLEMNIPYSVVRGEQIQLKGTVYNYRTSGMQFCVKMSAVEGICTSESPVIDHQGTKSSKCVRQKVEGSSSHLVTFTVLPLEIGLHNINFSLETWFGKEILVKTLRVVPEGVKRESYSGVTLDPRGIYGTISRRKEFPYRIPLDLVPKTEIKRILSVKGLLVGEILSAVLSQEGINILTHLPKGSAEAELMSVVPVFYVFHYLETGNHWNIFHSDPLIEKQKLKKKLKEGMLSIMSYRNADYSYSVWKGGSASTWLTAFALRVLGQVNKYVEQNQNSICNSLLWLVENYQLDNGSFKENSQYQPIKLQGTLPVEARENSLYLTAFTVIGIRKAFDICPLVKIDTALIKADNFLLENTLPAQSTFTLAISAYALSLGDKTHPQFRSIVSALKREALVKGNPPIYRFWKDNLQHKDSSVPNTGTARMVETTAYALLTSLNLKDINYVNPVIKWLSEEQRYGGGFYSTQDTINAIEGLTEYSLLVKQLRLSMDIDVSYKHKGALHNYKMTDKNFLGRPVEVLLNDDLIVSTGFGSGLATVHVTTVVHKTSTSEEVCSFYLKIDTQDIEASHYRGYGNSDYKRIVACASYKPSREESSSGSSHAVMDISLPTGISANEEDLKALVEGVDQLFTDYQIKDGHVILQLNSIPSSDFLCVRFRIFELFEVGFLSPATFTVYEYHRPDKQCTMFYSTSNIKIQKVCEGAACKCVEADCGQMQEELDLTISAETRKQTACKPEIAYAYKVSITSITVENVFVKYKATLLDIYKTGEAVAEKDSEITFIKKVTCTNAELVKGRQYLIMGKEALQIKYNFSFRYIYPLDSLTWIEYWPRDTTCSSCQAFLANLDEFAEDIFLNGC
# experiment_summary: cell-based or functional assay
reported_property: IC50 (read off the curve), OD (450nM)

- binder: "H1L3-IgG (antibody, V domains shown) VH: QVQLVQSGAEVKKPGASVKVSCKASGYTFTDEYMNWVRQAPGQSLEWMGYINPNNGGADYNQKFQGRVTMTVDQSISTAYMELSRLRSDDTAVYFCARLGYSNPYFDFWGQGTLVTVSS VL: DIVLTQSPSFLSASVGDRVTITCQASQDVNTAVAWYLQKPGKSPKLLIYWASTRHTGVPARFTGSGSGTDYTLTISSLQPEDFAVYFCQQHHVSPWTFGGGTKVEIK"
  reported_property: "IC50 (read off the curve), OD (450nM)"
  measurement: "~0.5 µg/mL"
